- TESTED TARGET: bacteriophage T4 DNA polymerase (Enterobacteria phage T4, UniProt P04415)
- Construct: made in house
- Sequence (P04415 whole entry): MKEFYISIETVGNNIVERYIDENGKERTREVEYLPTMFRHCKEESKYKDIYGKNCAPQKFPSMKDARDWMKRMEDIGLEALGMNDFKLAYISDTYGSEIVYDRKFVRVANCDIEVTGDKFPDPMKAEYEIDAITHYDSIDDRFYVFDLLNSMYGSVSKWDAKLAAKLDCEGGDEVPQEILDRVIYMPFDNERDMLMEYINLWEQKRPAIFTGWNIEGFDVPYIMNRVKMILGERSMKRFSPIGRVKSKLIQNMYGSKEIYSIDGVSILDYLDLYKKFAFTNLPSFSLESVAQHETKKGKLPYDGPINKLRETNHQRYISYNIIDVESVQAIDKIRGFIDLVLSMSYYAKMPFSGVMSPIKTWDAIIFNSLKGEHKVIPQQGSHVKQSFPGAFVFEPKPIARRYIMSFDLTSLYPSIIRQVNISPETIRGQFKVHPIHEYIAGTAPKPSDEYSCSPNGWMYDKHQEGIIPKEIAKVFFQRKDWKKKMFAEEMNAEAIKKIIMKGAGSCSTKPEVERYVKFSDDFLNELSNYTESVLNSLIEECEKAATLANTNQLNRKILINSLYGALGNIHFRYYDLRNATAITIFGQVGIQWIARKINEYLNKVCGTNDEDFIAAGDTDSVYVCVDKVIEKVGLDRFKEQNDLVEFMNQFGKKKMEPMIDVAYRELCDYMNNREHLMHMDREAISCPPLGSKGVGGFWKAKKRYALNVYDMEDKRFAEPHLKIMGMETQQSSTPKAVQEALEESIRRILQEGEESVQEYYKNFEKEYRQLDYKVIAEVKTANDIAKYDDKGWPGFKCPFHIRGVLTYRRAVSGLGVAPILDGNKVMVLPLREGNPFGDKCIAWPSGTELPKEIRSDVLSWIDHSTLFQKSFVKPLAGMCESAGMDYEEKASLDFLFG
- PROTOCOL SUMMARY: Counter-screen against bacteriophage T4 DNA polymerase
- Format: biochemical
- APPLIED CONDITIONS: DRC-1; read at 10'; concentration 20
EXPERIMENTAL READOUT: % inhibition T4 10' 20 (%)
Report the figure in % without appending any unit label.

Incoming: Give bacteriophage T4 DNA polymerase (Enterobacteria phage T4, UniProt P04415) % inhibition T4 10' 20 for the following compound: Cc1ccsc1Cn1c(C)ccc1C [Molecule 70, Cc1ccsc1Cn1c(C)ccc1C]
Outgoing: 13.0915

Incoming: Give bacteriophage T4 DNA polymerase (Enterobacteria phage T4, UniProt P04415) % inhibition T4 10' 20 for the following compound: O=C1CSC2=NC3=C(CCc4ccccc43)C(c3cccs3)N12 (centres unmarked) [Molecule 59, O=C1CSC2=NC3=C(C(N12)c1cccs1)CCc1c3cccc1]
Outgoing: 17.5613

Incoming: Give bacteriophage T4 DNA polymerase (Enterobacteria phage T4, UniProt P04415) % inhibition T4 10' 20 for the following compound: Cn1nc(-c2nc(-c3ccccc3)no2)c2c1CCN(C(=O)Cc1cccs1)C2 [Molecule 58]
Outgoing: 24

Incoming: Give bacteriophage T4 DNA polymerase (Enterobacteria phage T4, UniProt P04415) % inhibition T4 10' 20 for the following compound: COc1ccc(C2CC(c3ccc(Cl)cc3Cl)Nc3nc(N)nn32)cc1OC (centres unmarked) [Molecule 43]
Outgoing: 1.67

Incoming: Give bacteriophage T4 DNA polymerase (Enterobacteria phage T4, UniProt P04415) % inhibition T4 10' 20 for the following compound: Cc1cccc(-c2noc(C(=O)NNC(=O)C(Cl)(Cl)Cl)n2)c1 [KU0266208]
Outgoing: 3.222

Incoming: Give bacteriophage T4 DNA polymerase (Enterobacteria phage T4, UniProt P04415) % inhibition T4 10' 20 for the following compound: O=C(c1ccccc1)N1CCc2c(nc3cc(-c4ccccc4)[nH]n3c2=O)C1 [Molecule 30]
Outgoing: 0.1503

Incoming: Give bacteriophage T4 DNA polymerase (Enterobacteria phage T4, UniProt P04415) % inhibition T4 10' 20 for the following compound: Cn1nc(-c2nnc(-c3ccccc3F)o2)c2c1CCN(C(=O)c1ccccc1Cl)C2 [Molecule 34]
Outgoing: 1.06

Incoming: Give bacteriophage T4 DNA polymerase (Enterobacteria phage T4, UniProt P04415) % inhibition T4 10' 20 for the following compound: O=C(CCc1csc(NC(=O)Nc2ccccc2)n1)Nc1nc2ccccc2s1 [KU0177354]
Outgoing: 14.0599

Incoming: Give bacteriophage T4 DNA polymerase (Enterobacteria phage T4, UniProt P04415) % inhibition T4 10' 20 for the following compound: N#Cc1c(O)nc(N2CCCCC2)nc1-c1ccc2c(c1)OCO2 [KU0083146]
Outgoing: -4.89

Incoming: Give bacteriophage T4 DNA polymerase (Enterobacteria phage T4, UniProt P04415) % inhibition T4 10' 20 for the following compound: Nc1cc(Oc2ccc(O)c(N)c2)ccc1O [KU0034728]
Outgoing: 6.887

Incoming: Give bacteriophage T4 DNA polymerase (Enterobacteria phage T4, UniProt P04415) % inhibition T4 10' 20 for the following compound: CC(=O)OCC1=C(C(=O)[O-])N2C(=O)[C@@H](NC(=O)Cc3cccs3)[C@H]2SC1.[Na+] [Molecule 73]
Outgoing: 32.107

Incoming: Give bacteriophage T4 DNA polymerase (Enterobacteria phage T4, UniProt P04415) % inhibition T4 10' 20 for the following compound: CCCc1ccc(Oc2coc3cc(OC)ccc3c2=O)cc1 [KU0193249]
Outgoing: -2.718

Incoming: Give bacteriophage T4 DNA polymerase (Enterobacteria phage T4, UniProt P04415) % inhibition T4 10' 20 for the following compound: Cc1ccc(N2CCC(NC(=O)Cc3cccs3)C2=O)cc1C (centres unmarked) [Molecule 57, O=C(NC1CCN(C1=O)c1ccc(c(c1)C)C)Cc1cccs1]
Outgoing: 23.1597

Incoming: Give bacteriophage T4 DNA polymerase (Enterobacteria phage T4, UniProt P04415) % inhibition T4 10' 20 for the following compound: Cc1nc(C)c2c(n1)N(CC1CCCCC1)C(=O)CC2 [KU0218606]
Outgoing: -3.758

Incoming: Give bacteriophage T4 DNA polymerase (Enterobacteria phage T4, UniProt P04415) % inhibition T4 10' 20 for the following compound: COc1ccccc1CC(=O)N1CCc2c(nc3cc(-c4ccccc4Cl)[nH]n3c2=O)C1 [Molecule 49]
Outgoing: -14

Incoming: Give bacteriophage T4 DNA polymerase (Enterobacteria phage T4, UniProt P04415) % inhibition T4 10' 20 for the following compound: CC(C)CC(C(=O)O)N1C(=O)C2C3C=CC(C2C1=O)C1C(=O)N(C(CC(C)C)C(=O)O)C(=O)C31 (centres unmarked) [KU0193449]
Outgoing: 7.866

Incoming: Give bacteriophage T4 DNA polymerase (Enterobacteria phage T4, UniProt P04415) % inhibition T4 10' 20 for the following compound: COc1ccc(/C=C/c2cc(C(=O)O)c3ccccc3n2)cc1 [Molecule 5, COc1ccc(cc1)/C=C/c1nc2ccccc2c(c1)C(=O)O]
Outgoing: -3.901
